- System: SF-268 CNS
- ASSAY_EXPLANATION: NCI tumour cell line growth inhibition, 48 h
MEASURED_ENDPOINT: TGI

CC1CC(NN)=Nc2ccccc2N1 (centres undefined)
> 100 µM
O=C(/C=C/c1ccc(Cl)cc1)c1ccc(Cl)c(Cl)c1
> 100 µM

Enquiry: Consider the molecule shown here: NCCNS(=O)(=O)c1ccc(N)cc1 What is its recorded TGI?
Return: > 100 µM

Enquiry: Can you look up the measured TGI of NC(Cc1ccc(O)c(O)c1)P(=O)(O)O (centres undefined) for me?
Return: > 100 µM

Enquiry: Record request: TGI value, item COC(=O)CN1Cc2cc(C)cc(c2O)CN(CC(=O)OC)Cc2cc(C)cc(c2O)CN(CC(=O)OC)Cc2cc(C)cc(c2O)C1
Return: > 100 µM

Enquiry: # lookup: TGI of COc1cc(/C=C2\C[C@H]3[C@@H]4CC=C5C[C@@H](OC(C)=O)CC[C@]5(C)[C@H]4CC[C@]3(C)\C2=N\O)cc(OC)c1OC
Return: > 100 µM

Enquiry: So what does the record say about TGI for CCOC(=O)Nc1cc(NC(/C=N/NC(C)=O)C(=O)OCC)c(OC)cc1NC(C)=O (centres undefined) ?
Return: > 100 µM

Enquiry: Quick one: TGI for C[C@]12CCC3c4ccc(O)cc4CC[C@H]3C1CC(=O)NC2=O (some centres undefined) ?
Return: > 10 µM

Enquiry: Recorded TGI of Cn1cc(-c2nonc2-c2cn(C)c3ccc(F)cc23)c2ccccc21 , please.
Return: > 100 µM

Enquiry: Find the recorded TGI belonging to CCc1nnc(CC)n1N1C(=O)CCC1=O and report it.
Return: > 100 µM

Enquiry: GET /values?readout=TGI&item= CN1c2ccc(O)c(O)c2-c2cc(O)cc3c2C1CCC3 (centres undefined)
Return: 33 µM

Enquiry: Which TGI value belongs to O=[As]O ?
Return: > 74.4 µM

---

- System: A549 NSCLC
- ASSAY_EXPLANATION: NCI tumour cell line growth inhibition, 48 h
Below: a set of entries, each annotated with reported TGI.

Cc1nn(-c2ccccc2)c2nc3c(c(C)nn3-c3ccccc3)c(-c3ccc(C(F)(F)F)cc3)c12
> 100 µM
CC(=O)N1C(Nc2ccccc2)CCN1c1ccccc1 (stereo not given)
> 10 µM
CC1=CC(O)(c2ccccc2)C(N2CCOCC2)N1O (stereo not given)
> 100 µM

Enquiry: Request body: readout TGI, system A549 NSCLC, query Cc1cc(S(=O)(=O)NC2=NCC(C)NN2)c(S)cc1Cl (stereo not given) . Return the value.
Return: > 100 µM

Enquiry: Given the entry CC(C)(C)C1=Nc2c(Br)cc(C(C)(C)C)cc2C(C(F)(F)F)(C(F)(F)F)O1 , what TGI was observed with A549 NSCLC?
Return: > 100 µM

---

- Tested on: HCC-2998 colon
- ASSAY_EXPLANATION: NCI tumour cell line growth inhibition, 48 h
The following compounds are listed with their measured GI50 values.

NC1CCCCC1N.O=C([O-])c1cc(S(=O)(=O)Nc2cc(S(=O)(=O)[O-])cc3cc(S(=O)(=O)[O-])cc(O)c23)ccc1[O-].[Pt+4]
> 100000 nM
O=c1[nH]cnc2c1ccn2C1OC(CO)C(O)C1O (stereo not given)
7660 nM
Cc1ncc(C(=O)Nc2ccc(CN3CCN(C)CC3)c(C(F)(F)F)c2)cc1C#Cc1c(N)ncc2ccc(F)cc12
1010 nM
Clc1ccc(CNc2ccc3nc(CCC4CCCCC4)[nH]c3c2)cc1
1810 nM

As a next step, examine the compound that follows.
Enquiry: Could you share which GI50 value was measured for COc1cc(C2CC(c3cccc(Nc4ccnc5cc(Cl)ccc45)c3)=NN2C=O)cc(OC)c1OC (stereo not given) ?
Return: 2310 nM
